Observed Ki, system MT1 Receptor (Homo sapiens).
Parameter Measured: Ki

In [3]: df
Out[3]:
                                   compound  reported_result
0  CCCNC(=O)c1nnc2c(-c3cc(OC)ccc3OC)cccc2c1N [drawing 421]            36 nM
1  CCCNC(=O)c1nnc2c(-c3cc(OC)ccc3OC)c(F)ccc2c1N            31 nM
2  CCCNC(=O)c1nnc2c(-c3cc(OC)ccc3OC)cccc2c1N [drawing 417]            60 nM

====

Molecular target: GABAA2 (human α2β3γ2 GABAA receptor) (Homo sapiens, UniProt P18507+P47869)
Construct: expressed in transfected cells; host or cells: Xenopus laevis oocytes injected with capped cRNA
Sequence (P47869 29-451): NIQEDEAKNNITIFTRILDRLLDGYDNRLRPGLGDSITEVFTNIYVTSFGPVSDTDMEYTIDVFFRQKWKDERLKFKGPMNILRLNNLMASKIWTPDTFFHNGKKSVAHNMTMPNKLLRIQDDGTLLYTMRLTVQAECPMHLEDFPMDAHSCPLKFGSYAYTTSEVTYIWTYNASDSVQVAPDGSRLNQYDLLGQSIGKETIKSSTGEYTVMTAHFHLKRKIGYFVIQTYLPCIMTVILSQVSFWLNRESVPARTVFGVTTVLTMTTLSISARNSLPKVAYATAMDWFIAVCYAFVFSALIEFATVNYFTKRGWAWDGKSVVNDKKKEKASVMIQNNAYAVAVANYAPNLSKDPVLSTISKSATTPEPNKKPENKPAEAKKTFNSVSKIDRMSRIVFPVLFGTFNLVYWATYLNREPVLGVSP
Sequence (P28472 26-473 partner): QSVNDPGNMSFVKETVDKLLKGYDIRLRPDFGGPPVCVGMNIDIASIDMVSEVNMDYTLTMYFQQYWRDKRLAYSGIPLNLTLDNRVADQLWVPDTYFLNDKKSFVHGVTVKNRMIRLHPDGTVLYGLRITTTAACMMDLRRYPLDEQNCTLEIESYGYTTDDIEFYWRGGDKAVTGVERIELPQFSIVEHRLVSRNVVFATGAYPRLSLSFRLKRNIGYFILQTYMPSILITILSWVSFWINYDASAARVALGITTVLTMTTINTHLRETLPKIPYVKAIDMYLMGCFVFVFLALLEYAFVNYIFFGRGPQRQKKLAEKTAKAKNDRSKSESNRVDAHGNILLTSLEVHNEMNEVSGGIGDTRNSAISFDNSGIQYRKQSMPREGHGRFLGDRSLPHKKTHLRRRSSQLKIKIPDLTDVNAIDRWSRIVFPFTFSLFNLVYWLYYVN
Sequence (P18507 40-475): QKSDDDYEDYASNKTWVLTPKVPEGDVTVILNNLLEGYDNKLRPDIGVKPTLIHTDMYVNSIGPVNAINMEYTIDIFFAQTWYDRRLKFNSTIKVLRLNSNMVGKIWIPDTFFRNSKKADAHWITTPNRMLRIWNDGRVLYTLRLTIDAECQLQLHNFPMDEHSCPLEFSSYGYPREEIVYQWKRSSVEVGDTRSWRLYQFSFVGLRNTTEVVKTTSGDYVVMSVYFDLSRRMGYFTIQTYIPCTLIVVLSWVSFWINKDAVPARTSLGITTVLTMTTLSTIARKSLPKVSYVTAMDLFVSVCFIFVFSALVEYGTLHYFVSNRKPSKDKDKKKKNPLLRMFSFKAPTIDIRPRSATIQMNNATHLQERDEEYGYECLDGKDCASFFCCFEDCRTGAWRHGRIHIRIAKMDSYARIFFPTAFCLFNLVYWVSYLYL
Assay: Two-electrode voltage-clamp in Xenopus oocytes, potentiation of GABA EC10 current, GABAA2
Format: cell-based
Details: percentage potentiation of GABA EC10 current divided by that of diazepam
Method: Presently available GABAA modulator anxiolytics work via interactions at the classical benzodiazepine binding site. To a large degree these anxiolytics lack GABAA receptor subtype-selectivity. […] GABAA receptors were heterologously expressed in Xenopus oocytes by injecting cRNA corresponding to human α1, α2, α3, α5, β2, β3 and γ2 subunits of the GABAA receptor genes. […] Modulatory effect of test compound was determined and compared across subtypes. […]
Parameter Measured: Relative Potentiation for GABAA2

>>> df
                               sample_smiles  reported_result
 0   CCCNC(=O)c1nnc2c(-c3cccc(F)c3F)cccc2c1N             0.17
 1  CCCNC(=O)c1nnc2c(-c3cnc(OC)c(Cl)c3)cccc2c1N             0.04
 2  CCCNC(=O)c1nnc2c(-c3cccc(OC)c3F)cccc2c1N             0.26
 3   CCCNC(=O)c1nnc2c(-c3cccc(C)c3C)cccc2c1N             0.18
 4   CCCNC(=O)c1nnc2c(-c3ccc(C)nc3F)cccc2c1N             0.27
 5   CCCNC(=O)c1nnc2c(-c3cc(F)ccc3C)cccc2c1N             0.22
 6  CCCNC(=O)c1nnc2c(-c3cc(F)ccc3OC)cccc2c1N              0.4
 7  CCCNC(=O)c1nnc2c(-c3cnc(OC)nc3OC)c(F)ccc2c1N             0.39
 8  CCCNC(=O)c1nnc2c(-c3ccc(F)cc3OC)cccc2c1N             0.38
 9   CCCNC(=O)c1nnc2c(-c3cc(F)ccc3F)cccc2c1N             0.29
10  CCCNC(=O)c1nnc2c(-c3cc(C(F)(F)F)ccc3Cl)cccc2c1N             0.59
11  CCCNC(=O)c1nnc2c(-c3cncc(C(=O)N4CCC4)c3)cccc2c1N           −0.033
12  CCCNC(=O)c1nnc2c(-c3cccc(C#N)c3)cccc2c1N             0.31
13    CCCCNC(=O)c1nnc2c(-c3cnccc3OC)cccc2c1N             0.52
14  CCCNC(=O)c1nnc2c(-c3cc(F)ccc3C)c(F)ccc2c1N             0.12
15  CCCNC(=O)c1nnc2c(-c3cc(F)cc(F)c3)cccc2c1N             0.26
16  CCCNC(=O)c1nnc2c(-c3cc(OC)c(OC)c(OC)c3)cccc2c1N             0.67
17  CCCNC(=O)c1nnc2c(-c3cc(C)c(OC)c(C)c3)cccc2c1N             0.32
18  CCCNC(=O)c1nnc2c(-c3ccc(OC)cc3F)c(F)ccc2c1N             0.18
19  CCCNC(=O)c1nnc2c(-c3ccc(OC)cc3C(F)(F)F)cccc2c1N             0.16
20  CCCNC(=O)c1nnc2c(-c3ccc4ncccc4c3)cccc2c1N             0.23
21  Cc1ccc(-c2cccc3c(N)c(C(=O)NC4CC4)nnc23)cn1            0.074
22  CCCNC(=O)c1nnc2c(-c3ccc(F)c(-c4ccc(F)cc4C#N)c3)cccc2c1N            0.023

====

Molecular target: GABAA2 receptors (α2, β3, γ2 receptor subunits) (Homo sapiens, UniProt P18507+P47869)
Sequence (P47869 29-451): as the sequence (P47869 29-451) above
Sequence (P28472 26-473 partner): as the sequence (P28472 26-473 partner) above
Sequence (P18507 40-475): as the sequence (P18507 40-475) above
Experiment: biochemical
Settings: [3H]-Flunitrazepam ~2 nM, α2β3γ2 Sf9 membranes, 1 hr at 4° C.; read-out: GABAA2 Binding Ki
Parameter Measured: Ki (nM)

>>> print(df.to_string())
                               sample_smiles  parameter_measured  unit_text  reported_result
 0       CCCNC(=O)c1nnc2c(-c3ccncc3)cccc2c1N                  Ki         nM             1.67
 1  CCCNC(=O)c1nnc2c(-c3cccc(C(=O)O)c3)cccc2c1N                  Ki         nM             53.8
 2  CCCNC(=O)c1nnc2c(-c3cnc(OC)nc3OC)c(Cl)ccc2c1N                  Ki         nM             2.73
 3   CCCNC(=O)c1nnc2c(-c3cccc(F)c3F)cccc2c1N                  Ki         nM            0.558
 4  CCCNC(=O)c1nnc2c(-c3ccc(OC)nc3OC)cccc2c1N                  Ki         nM             0.56
 5   CCNC(=O)c1nnc2c(-c3c(F)cccc3OC)cccc2c1N                  Ki         nM            0.301
 6     CCCNC(=O)c1nnc2c(-c3cn[nH]c3)cccc2c1N                  Ki         nM             7.38
 7  CCCNC(=O)c1nnc2c(-c3cc(Cl)cc(Cl)c3)cccc2c1N                  Ki         nM               22
 8  CCCNC(=O)c1nnc2c(-c3ccc(OC)c(F)c3)c(F)ccc2c1N                  Ki         nM             2.88
 9  CCCNC(=O)c1nnc2c(-c3ccc(OC)c(OC)c3OC)c(F)ccc2c1N                  Ki         nM              0.6
10  CCCNC(=O)c1nnc2c(-c3ccc(OC)c(F)c3)cccc2c1N                  Ki         nM             20.2
11  CCCNC(=O)c1nnc2c(-c3cccc(F)c3OC)cccc2c1N                  Ki         nM             10.9
12  CCCNC(=O)c1nnc2c(-c3cc(Cl)cc(Cl)c3)c(F)ccc2c1N                  Ki         nM             16.1
13  CCCNC(=O)c1nnc2c(-c3ccc(OC)cc3OC)c(Cl)ccc2c1N                  Ki         nM             5.71
14  CCCNC(=O)c1nnc2c(-c3cc(OC)ccc3F)cccc2c1N                  Ki         nM             1.73
15  CCCNC(=O)c1nnc2c(-c3cc(Cl)ccc3Cl)c(F)ccc2c1N                  Ki         nM             1.34
16  CCCNC(=O)c1nnc2c(-c3cc(OC)cc(OC)c3)cccc2c1N                  Ki         nM                5
17      CCNC(=O)c1nnc2c(-c3cnccc3OC)cccc2c1N                  Ki         nM             4.36
18   CCCNC(=O)c1nnc2c(-c3cccc(OC)c3)cccc2c1N                  Ki         nM             4.34
19      CCCNC(=O)c1nnc2c(-c3cccnc3F)cccc2c1N                  Ki         nM             1.13
20   CCCNC(=O)c1nnc2c(-c3cnc(OC)nc3)cccc2c1N                  Ki         nM             19.5
21    CCCNC(=O)c1nnc2c(-c3ccc(C)nc3)cccc2c1N                  Ki         nM             4.11
22  COc1ccncc1-c1cccc2c(N)c(C(=O)NC3CC3)nnc12                  Ki         nM            0.785
23   CCCNC(=O)c1nnc2c(-c3ccccc3)c(OC)ccc2c1N                  Ki         nM             91.4
24   CCCNC(=O)c1nnc2c(-c3ccc(OC)cc3)cccc2c1N                  Ki         nM             15.4
25  COc1cccc(F)c1-c1cccc2c(N)c(C(=O)NC3CC3)nnc12                  Ki         nM            0.698
26  CCCNC(=O)c1nnc2c(-c3ccc(OC)cc3F)c(F)ccc2c1N                  Ki         nM            0.613
27  CCCNC(=O)c1nnc2c(-c3cc(OC)c(OC)c(OC)c3)cccc2c1N                  Ki         nM             56.5
28    CCCCNC(=O)c1nnc2c(-c3cnccc3OC)cccc2c1N                  Ki         nM             1.84
29  CCCNC(=O)c1nnc2c(-c3cc(Cl)ccc3Cl)cccc2c1N                  Ki         nM             0.71
30   CCCNC(=O)c1nnc2c(-c3ccc(F)cc3F)cccc2c1N                  Ki         nM             1.72
31  CCCNC(=O)c1nnc2c(-c3ccc(OC)cc3OC)c(C#N)ccc2c1N                  Ki         nM             2.69
32  CCCNC(=O)c1nnc2c(-c3ccc(F)cc3OC)c(F)ccc2c1N                  Ki         nM            0.565
33        CCCNC(=O)c1nnc2c(-c3ccsc3)cccc2c1N                  Ki         nM             18.6
34  CCCNC(=O)c1nnc2c(-c3ccc(OC)c(OC)c3)cccc2c1N                  Ki         nM             3.88
35  CCCNC(=O)c1nnc2c(-c3ccc(OC)cc3F)cccc2c1N                  Ki         nM             4.17
36  CCCNC(=O)c1nnc2c(-c3cccc(OC(F)(F)F)c3)cccc2c1N                  Ki         nM             47.8
37  CCCNC(=O)c1nnc2c(-c3cc(F)ccc3OC)c(F)ccc2c1N                  Ki         nM             0.98
38   CCCNC(=O)c1nnc2c(-c3cc(F)ccc3F)cccc2c1N                  Ki         nM            0.996
39  CCCNC(=O)c1nnc2c(-c3c(OC)cccc3OC)cccc2c1N                  Ki         nM              624
40  COc1ccc(-c2cccc3c(N)c(C(=O)NC4CCC4)nnc23)c(OC)c1                  Ki         nM            0.927
41  CCCNC(=O)c1nnc2c(-c3ccc(C)c(C)c3)cccc2c1N                  Ki         nM             16.8
